method: qHTS RealTime-Glo MT Cell Viability Assay in HepG2 cells - 24 hour (AID 1224867); note: nearly all actives have a fitted effect of over 50% in size
condition parameters: RealTime-Glo luminescence; series mostly up to 76.8 µM
From the text: U.S. Tox21 Program National Center for Advancing Translational Sciences [NCATS] NIH Chemical Genomics Center [NCGC] U.S. Environmental Protection Agency [EPA] National Institutes of Environmental Health Sciences [NIEHS] National Toxicology Program [NTP] U.S. Food and Drug Administration [FDA] Tox21 Assay Overview: Measure of cell viability is critical in the cell-base assay. Analysis of cell viability is necessary for the characterization of cell responses to cytotoxic drugs and environmental stress. […]
Results filed as inconclusive are left out. Activity calls are given as the source filed them. Calls come from the whole dose curve; as a rule, active = well fitted cell-killing curve with a large enough effect in the repeat runs; inconclusive = weak or mixed curves; inactive = flat fitted curve, though single readings scatter.
Would you mind answering with one of these outcomes? active, inactive

compound	class
CC(C)(C)OC(=O)c1ncn2c1[C@@H]1CCCN1C(=O)c1c(Br)cccc1-2	inactive
C[C@]12CC[C@H]3[C@@H](CCC4=CC(=O)CC[C@@]43C)[C@@H]1CC[C@@H]2C(=O)O	inactive
CCCCc1ccc(O)cc1	inactive

Continue with the next compound.
Lookup: Hi, do you know how `CCOc1nc(C(Cl)(Cl)Cl)ns1` came out in this test?
Found: inactive

====

method: qHTS RealTime-Glo MT Cell Viability Assay in HEK293 cells - 8 hour (AID 1224887); note: nearly all actives have a fitted effect of over 50% in size
condition parameters: RealTime-Glo luminescence; series mostly up to 76.8 µM
Records with an inconclusive call do not appear. Calls of active or inactive are those of the source. The call rests on the fitted dose curve; in most records, active means well fitted cell-killing curve with a large enough effect in the repeat runs; inconclusive means weak or mixed curves, or effect the other way; inactive means flat fitted curve, though single readings scatter.
Outcomes you can answer with include only these: yes (active), no (inactive)

compound	class
CC(C1CC1)C(O)(Cn1cncn1)c1ccc(Cl)cc1 (stereo not drawn)	no
Cc1ncsc1CCCl	no

Lookup: I would be grateful if you could indicate the recorded call for `C#C[C@]1(O)C=C[C@H]2[C@@H]3CCC4=CC(=O)CC[C@@H]4[C@H]3CC[C@@]21CC` .
Found: no

Lookup: Could you please tell me the result logged for `CNC(=O)N(C)c1nc2ccccc2s1` in this assay?
Found: no

Lookup: Would you mind telling me which call this test gave `CC1=C(C(=O)Nc2ccccc2)S(=O)(=O)CCO1` ?
Found: no

Lookup: Returns: the outcome recorded for `CC(C)[N+](=O)[O-]` in this assay.
Found: no

Lookup: Which outcome was entered for the compound `C1CCC(C2CCCCC2)CC1` in this test?
Found: no

Lookup: Short answer needed: outcome of this test for `N#Cc1c(Cl)cccc1Cl` ?
Found: no

Lookup: Call for entry `CC1=NNC(=O)N(/N=C/c2cccnc2)C1` :
Found: no

Lookup: Field: outcome | Entry: `CSc1ccc(C(=O)C(C)(C)N2CCOCC2)cc1`
Found: no

Lookup: Hey, what did the test say about CC(C(=O)c1ccccc1)N(C)C (stereo not drawn) ?
Found: no

Lookup: Please indicate how the test categorized `CCOP(=S)(OCC)SCSc1ccc(Cl)cc1` .
Found: no

Lookup: What did this assay record as the result for `C=CCC1=C(C)[C@@H](OC(=O)[C@@H]2[C@@H](C=C(C)C)C2(C)C)CC1=O` ?
Found: yes

====

method: qHTS assay to identify small molecule antagonists of the sonic hedgehog signaling (Shh) pathway (AID 1259369); note: nearly all actives have a fitted effect of over 45% in size
condition parameters: NIH/3T3 Gli1-Luc reporter, Shh antagonist, luminescence 24 h; series mostly up to 92.4 µM
Results filed as inconclusive are left out. The source made the active and inactive calls. Calls follow the shape of the full dose curve.
Field 'call' accepts active, inactive

compound	class
CN1CCC(N(Cc2ccccc2)c2ccccc2)CC1	active
C=CC1CC=CCC1 (centres undefined)	inactive
CNNC	inactive

Lookup: Hi, do you know how `CC(C)CC#N` came out in this test?
Found: inactive

Lookup: Entry `COc1cc(OC)nc(Sc2cccc(Cl)c2C(=O)O)n1` : call = ?
Found: inactive

Lookup: Recorded test call requested for `CCC#N`
Found: inactive

====

method: qHTS assay to identify small molecule agonists of the estrogen receptor beta (ER-beta) signaling pathway - cell viability counter screen (AID 1259380); note: nearly all actives have a fitted effect of over 30% in size
condition parameters: ER-beta-bla HEK293T viability, CellTiter-Glo luminescence, 16 h; series mostly up to 92.4 µM
Inconclusive results are not listed. The source made the active and inactive calls. Calls follow the shape of the dose curve; as a rule, active = well fitted cell-killing curve with a large enough effect in the repeat runs; inconclusive = weak or mixed curves, or effect the other way; inactive = flat fitted curve, though single readings scatter.
Thanks in advance; please answer with one of these: true for active, false for inactive

compound	class
C[N+](C)=CCl	false
CN1CCC(N(Cc2ccccc2)c2ccccc2)CC1	true
COc1cc(OC)nc(NC(=O)NS(=O)(=O)c2ncccc2C(=O)N(C)C)n1	false
Cc1cnc[nH]1	false
CCOP(=S)(OCC)Oc1cc(-c2ccccc2)on1	false

Lookup: Outcome logged for `COc1cc(OC)nc(Sc2cccc(Cl)c2C(=O)O)n1` in this assay:
Found: false

Lookup: Assay outcome for `CCOP(=O)(OCC)OP(=O)(OCC)OCC` : what was it?
Found: false

====

method: Human pregnane X receptor (PXR) small molecule agonists, qHTS cell viability counter screen (AID 1346977); note: nearly all actives have a fitted effect of over 50% in size
condition parameters: PXR-Luc HepG2 viability, CellTiter-Fluor, 24 h; series mostly up to 92.4 µM
Records with an inconclusive call do not appear. Activity calls are given as the source filed them. Calls come from the whole dose curve; as a rule, active = well fitted cell-killing curve with a large enough effect in the repeat runs; inconclusive = weak or mixed curves, or effect the other way; inactive = flat fitted curve, though single readings scatter.
Output constraint: value belongs to true (active), false (inactive)

Before answering, review these 8 worked examples.
molecule	class
Cc1ncc2n1-c1ccc(Cl)cc1C(c1ccccc1F)=NC2	false
C=CCC1=C(C)[C@@H](OC(=O)[C@@H]2[C@@H](C=C(C)C)C2(C)C)CC1=O	true
O=[N+]([O-])c1cccc(O)c1	false
CC(C)(C)OC(=O)c1ncn2c1[C@@H]1CCCN1C(=O)c1c(Br)cccc1-2	false
O=C1OC(=O)C2C1C1(Cl)C(Cl)=C(Cl)C2(Cl)C1(Cl)Cl (configuration not stated)	false
CN1C(=S)CN=C(c2ccccc2)c2cc(Cl)ccc21	false
CCOP(=S)(OCC)Oc1cc(-c2ccccc2)on1	false
CC(C)CC(N(C)C)C1(c2ccc(Cl)cc2)CCC1 (configuration not stated)	false

Lookup: Hi team, can someone confirm the assay call for `Cc1ncsc1CCCl` ?
Found: false

Lookup: How was `ClC(Cl)C(Cl)Cl` classified in this test?
Found: false

Lookup: What was the test verdict on `Cc1cc(C)c(C(=O)P(=O)(C(=O)c2c(C)cc(C)cc2C)c2ccccc2)c(C)c1` ?
Found: false

Lookup: # outcome recorded in this test, key = `O=C(Oc1ccc(Br)cc1)N1CCN2CCC1CC2`
Found: false

====

tested target: Nuclear receptor subfamily 1 group I member 3 (Homo sapiens) (UniProt Q14994)
Sequence (Q14994 whole entry, looked up): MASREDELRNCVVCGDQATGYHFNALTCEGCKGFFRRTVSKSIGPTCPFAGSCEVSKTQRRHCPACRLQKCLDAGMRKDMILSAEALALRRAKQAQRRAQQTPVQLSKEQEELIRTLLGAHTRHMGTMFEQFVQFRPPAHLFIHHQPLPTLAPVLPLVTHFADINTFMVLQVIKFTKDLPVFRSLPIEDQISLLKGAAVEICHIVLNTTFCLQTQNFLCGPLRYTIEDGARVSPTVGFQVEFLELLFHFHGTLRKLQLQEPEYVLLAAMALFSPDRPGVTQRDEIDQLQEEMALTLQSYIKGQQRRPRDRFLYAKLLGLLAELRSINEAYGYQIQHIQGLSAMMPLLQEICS
method: qHTS assay to identify small molecule antagonists of the constitutive androstane receptor (CAR) signaling pathway (AID 1224838);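 note: HepG2 cells stably expressing hCAR with CYP2B6 luciferase reporter stimulated by CITCO; nearly all actives have a fitted effect of over 40% in size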
condition parameters: HepG2-CYP2B6-hCAR luciferase, CITCO-stimulated, 24 h; series mostly up to 92.4 µM
Records with an inconclusive call do not appear. The source made the active and inactive calls. Calls come from the whole dose curve; as a rule, active = well fitted inhibition curve with a large enough effect in the repeat runs; inconclusive = weak or mixed curves, or effect the other way; inactive = no such curve, though single readings can be large or run the other way.
Returns: one label drawn from yes (1) for active, no (0) for inactive

These recorded examples may help you get a feel for the data.
compound	class
COc1cc(OC)nc(NC(=O)NS(=O)(=O)c2ncccc2OCC(F)(F)F)n1	no (0)
NC(=S)C(N)=S	no (0)
CC(C=O)Cc1ccc2c(c1)OCO2 (stereo not drawn)	no (0)
CCC1(c2ccccc2)C(=O)N=C(O)NC1=O (stereo not drawn)	no (0)

Lookup: // return assay outcome for `O=[N+]([O-])c1cccc(O)c1`
Found: no (0)

Lookup: I would be grateful if you could indicate the recorded call for `CCCCCCI` .
Found: no (0)

Lookup: GET /call?item= `CNC(=O)Oc1cccc(C(C)C)c1` returns the recorded outcome of this test.
Found: no (0)

Lookup: Outcome logged for `COc1cccc2c1cc([N+](=O)[O-])c1c(C(=O)O)cc3c(c12)OCO3` in this assay:
Found: yes (1)

Lookup: How was CCN(CC)C(C)C(=O)c1ccccc1 (stereo not drawn) classified in this test?
Found: no (0)

Lookup: What is the recorded call for this compound in the test? CC1CN1P(=O)(N1CC1C)N1CC1C (stereo not drawn)
Found: no (0)

Lookup: How did this test come out for `CCN(Cc1ccc(Cl)nc1)/C(=C/[N+](=O)[O-])NC` ?
Found: no (0)

Lookup: Check the results log: what was the call for `CC1(C)COP(Oc2ccccc2)OC1` ?
Found: no (0)

Lookup: Tell me the recorded outcome of this test for O=C1OC(CCN2CCCCC2)OC1(c1ccccc1)c1ccccc1 (stereo not drawn) .
Found: no (0)

Lookup: Could you check what this test reported for `Nc1cc(Cl)ccc1O` ?
Found: no (0)

====

method: qHTS assay to identify small molecule antagonists of the TGF-beta/Smad signaling pathway - cell viability counter screen (AID 1346824); note: nearly all actives have a fitted effect of over 50% in size
condition parameters: SBE-bla HEK293T viability, CellTiter-Glo luminescence; series mostly up to 76.8 µM
Text: U.S. Tox21 Program National Center for Advancing Translational Sciences [NCATS] NIH Chemical Genomics Center [NCGC] U.S. Environmental Protection Agency [EPA] National Institutes of Environmental Health Sciences [NIEHS] National Toxicology Program [NTP] U.S. Food and Drug Administration [FDA] […]
Results filed as inconclusive are left out. Activity calls are given as the source filed them. Calls follow the shape of the dose curve; as a rule, active = well fitted cell-killing curve with a large enough effect in the repeat runs; inconclusive = weak or mixed curves; inactive = flat fitted curve, though single readings scatter.
Respond using exactly one of the listed classes: active, inactive

Solved entries:
molecule	class
NC1=NC(=O)C(c2ccccc2)O1 (centres undefined)	inactive
Cc1cc(C)c(C(=O)P(=O)(C(=O)c2c(C)cc(C)cc2C)c2ccccc2)c(C)c1	inactive

Lookup: For `C=CCC1=C(C)[C@@H](OC(=O)[C@@H]2[C@@H](C=C(C)C)C2(C)C)CC1=O` , what call appears in the results of this test?
Found: active

Lookup: Please share the test call associated with `Cc1cccc(C#N)c1` .
Found: inactive

Lookup: Outcome? `C=C(C)[C@@H]1CC=C(C=O)CC1`
Found: inactive

Lookup: Which outcome did this test record for the molecule `Nc1cc2c3c(c1)C(c1ccccc1)=N[C@@H](NC(=O)c1cccnc1)C(=O)N3CC2` ?
Found: inactive

Lookup: What call does the record list for Fc1ccc(C2(Cn3cncn3)OC2c2ccccc2Cl)cc1 (centres undefined) ?
Found: inactive

Lookup: State the result this test recorded for CC(Oc1ccc(Oc2ncc(C(F)(F)F)cc2Cl)cc1)C(=O)O (centres undefined) .
Found: inactive

Lookup: For N#CC(O)c1ccccc1 (centres undefined) , what call appears in the results of this test?
Found: inactive
